// melting point lookup, one value per entry
Where a name gives a salt, the structure may show the parent alone.

- Cc1nc2c(N)nc3cc(-c4ccccc4)ccc3c2n1CCCS(C)(=O)=O: 203 to 205 °C
- CCOCc1nc2c(N)nc3cc(-c4cncc(CO)c4)ccc3c2n1CCCCN1CCCS1(=O)=O: 184.5 to 186 °C
- CCOCc1nc2c(N)nc3cc(-c4cccnc4)ccc3c2n1CC1COC(C)(C)O1 (centres unmarked): 181 to 182 °C
- CCCc1nc2c(N)nc3cc(/C=C/c4cccc(OC)c4)ccc3c2n1CC(C)C: 181 to 183 °C
- CCCc1nc2c(N)nc3cc(CCc4ccccc4OC)ccc3c2n1CC(C)C (as salt: HCl): > 250 °C
- CCOCc1nc2c(N)nc3ccc(C=Cc4ccccc4)cc3c2n1CC(C)(C)O: 217 to 218 °C
- CCOCc1nc2c(N)nc3cc(-c4cccnc4)ccc3c2n1CC1CCN(C(=O)OC(C)(C)C)CC1: 197 to 198 °C

Lookup result for CCOCc1nc2c(N)nc3cc(-c4cccc(C(=O)N5CCCC5)c4)ccc3c2n1CCCOC (as salt: HCl) ; measured melting point: 145 to 146 °C

====

melting point listing for selected compounds.

Worked examples follow.
• CCOCc1nc2c(N)nc3cc(-c4cncc(CO)c4)ccc3c2n1CC(C)(C)O = 188 to 190 °C
• COCc1nc2c(N)nc3cc(-c4cncc(CO)c4)ccc3c2n1CC(C)(C)O (hydrate or solvate) = 224 to 225 °C
• COCCc1nc2c(N)nc3cc(-c4ccccc4)ccc3c2n1CCCN1CCCC1=O = 187 to 191 °C

get_value(item= CCCc1nc2c(N)nc3cc(CCc4ccc(C)s4)ccc3c2n1CC(C)C , readout=melting point) returns 150 to 152 °C

So for CCOCc1nc2c(N)nc3cc(-c4cccnc4)ccc3c2n1Cc1ccc(CNS(C)(=O)=O)cc1 , the logged melting point turned out to be 228 to 229 °C

melting point recorded for this compound, CCOCc1nc2c(N)nc3cc(-c4cccnc4)ccc3c2n1CCN1CCNCC1 , is 208 to 211 °C

Reported melting point ( CCOCc1nc2c(N)nc3cc(-c4ccncc4)ccc3c2n1CC(C)C ) = 211 to 213 °C

Sample CCOCc1nc2c(N)nc3cc(-c4cccnc4)ccc3c2n1CCCCNC(=O)NC1CCCC1 ; melting point observed: 190 to 192 °C

Short answer for CCOCc1nc2c(N)nc3cc(-c4ccncc4)ccc3c2n1CCCCN1CCCS1(=O)=O : melting point was 186 to 187.5 °C

Consider CCc1nc2c(N)nc3cc(-c4ccncc4)ccc3c2n1CC(C)(C)O . Its measured melting point is > 250 °C

GET /value?item= CCOCc1nc2c(N)nc3c(-c4cccnc4)cccc3c2n1CC(C)(C)O &field=melting point returns 199 to 201 °C

Data point: CC(C)(O)Cn1cnc2c(N)nc3ccc(Cc4ccccc4)cc3c21 ; melting point = 256 to 257 °C

The compound identified as CCCc1nc2c(N)nc3cc(-c4cccnc4)ccc3c2n1CC(C)(C)O registered its melting point at 238.5 to 241 °C

Summary for this compound, CCOCc1nc2c(N)nc3cc(-c4cccnc4)ccc3c2n1CC1CCOCC1 (hydrate or solvate) : melting point is 116 to 121 °C

melting point for CC(C)Cn1cnc2c(N)nc3ccc(-c4ccsc4)cc3c21 is 235 to 236 °C

According to the records, this compound CCOCc1nc2c(N)nc3cc(-c4cccnc4)ccc3c2n1CCN1CCCS1(=O)=O displays melting point of 244 to 246 °C

Notebook: CC(C)Cn1cnc2c(N)nc3cc(C=Cc4ccccc4)ccc3c21 , melting point read as 257 to 258 °C

====

measured.attribute: melting point

• CCOCc1nc2c(N)nc3ccc(Cc4ccccc4)cc3c2n1CC(C)(C)O = 209 to 210 °C
• CC(C)Cn1cnc2c(N)nc3cccc(-c4ccccc4)c3c21 = 263 to 265 °C
• CCCc1nc2c(N)nc3cc(/C=C/c4ccccc4OC)ccc3c2n1CC(C)C = 214 to 216 °C
• CC(C)Cn1cnc2c(N)nc3cc(-c4cccnc4)ccc3c21 = 125 °C
• COCCc1nc2c(N)nc3cc(-c4cccc(NS(C)(=O)=O)c4)ccc3c2n1CCCN1CCCC1=O = 210 to 213 °C

CCOCc1nc2c(N)nc3cc(-c4cccnc4)ccc3c2n1CCCCNC(=O)C(C)C has a reported melting point of 200 to 202 °C

So for CCOCc1nc2c(N)nc3cc(-c4cccc(C(=O)N5CCOCC5)c4)ccc3c2n1CC(C)(C)O , the logged melting point turned out to be 152 to 154 °C

====

Counter-ions that a name gives are not always drawn.
measured.attribute: melting point

Consider the worked cases shown below.
* CCOCc1nc2c(N)nc3cc(-c4cccnc4)ccc3c2n1CC1CCCCC1 | 146 to 148 °C
* CCCCc1nc2c(N)nc3cc(-c4cccnc4)ccc3c2n1CCNC(=O)C(C)C | 228 to 230 °C
* CCOCc1nc2c(N)nc3cc(-c4cccnc4)ccc3c2n1CC1CCCCN1S(C)(=O)=O (stereo not shown) | 152 to 154 °C
* CCc1nc2c(N)nc3cc(-c4cccnc4)ccc3c2n1CC1CCN(C(=O)C(C)C)CC1 (hydrate or solvate) | 189 to 191 °C

Next:
The recorded melting point for entry CCCc1nc2c(N)nc3cc(-c4cccnc4)ccc3c2n1CC1CCNCC1 (as salt: hydrochloride) [Example 410, trihydrochloride] equals > 250 °C

====

The reader will find reported melting point values listed item by item below.

• CCOCc1nc2c(N)nc3cc(-c4cccnc4)ccc3c2n1CCCCNC(=O)c1ccc(C(OCCN(C)C)c2ccccc2)cc1 (stereo not drawn) = 157 to 161 °C
• CCCc1nc2c(N)nc3cc(-c4cccnc4)ccc3c2n1CC1CCN(C(=O)OC(C)(C)C)CC1 = 209 to 211 °C
• CCOCc1nc2c(N)nc3cc(-c4ccncc4)ccc3c2n1CCCOC = 225 to 226 °C
• CCOCc1nc2c(N)nc3cc(-c4ccccc4)ccc3c2n1CC(C)(C)NC(=O)C1CCCCC1 = 195 to 198 °C
• CCOCc1nc2c(N)nc3c(-c4cccc(CS(N)(=O)=O)c4)cccc3c2n1CC(C)(C)O = 234 to 235 °C

melting point reported for this compound CCOCc1nc2c(N)nc3cc(-c4cccnc4)ccc3c2n1CCCCS(=O)(=O)N(C)C : 205 to 206 °C

The compound listed as CCOCc1nc2c(N)nc3cc(-c4ccccc4)ccc3c2n1CCCN1CCCC1=O has a reported melting point of 199 to 203 °C

====

Recorded measurements of melting point, one per entry

• CCOCc1cncc(-c2ccc3c(c2)nc(N)c2nc(COCC)n(CC(C)(C)O)c23)c1 = 156 to 156.5 °C

// sample CCOCc1nc2c(N)nc3cc(-c4cccnc4)ccc3c2n1CCCCS(=O)(=O)NC , its melting point was 216 to 218 °C

Lab note: measured melting point of COCCc1nc2c(N)nc3cc(-c4cncc(CO)c4)ccc3c2n1CC(C)C was 202 to 204 °C

melting point reading for CCCCc1nc2c(N)nc3cc(-c4ccccc4OCCC)ccc3c2n1CC(C)C : 174.5 to 176 °C

melting point for CCOCc1nc2c(N)nc3cc(-c4ccccc4)ccc3c2n1CC(C)(C)O is 211 to 212 °C

Lab note: measured melting point of CCOCc1nc2c(N)nc3cc(-c4cncc(OC)c4)ccc3c2n1CC(C)(C)OCCS(C)(=O)=O was 186 to 188 °C

Please fill in: melting point reported for CCOCc1nc2c(N)nc3cc(-c4cncc(CO)c4)ccc3c2n1CCCOC = 198 to 199 °C

// melting point value for CCOCc1nc2c(N)nc3cc(-c4cccnc4)ccc3c2n1CC(O)CO (stereo not drawn) : 218 to 220 °C

melting point recorded for this molecule, CCCOc1ccc(-c2ccc3c(c2)nc(N)c2nc(COCC)n(CC(C)C)c23)cc1 , is 209 to 210 °C

The molecule listed as COCCc1nc2c(N)nc3cc(-c4ccccc4)ccc3c2n1CCCCNS(C)(=O)=O shows melting point equal to 201 to 202 °C

The measured melting point associated with CCOCc1nc2c(N)nc3cc(-c4cncc(CO)c4)ccc3c2n1CC(C)C reads 211 to 212 °C

molecule COCCc1nc2c(N)nc3cc(-c4cccnc4)ccc3c2n1CC(C)C , melting point observed: 207 to 208 °C

====

Reported melting point values for a set of compounds

- CCOCc1nc2c(N)nc3cc(-c4cccc(CS(N)(=O)=O)c4)ccc3c2n1CC1CCOCC1: 254 to 255 °C
- CCCCc1nc2c(N)nc3cc(-c4ccccc4)ccc3c2n1CCCS(C)(=O)=O: 214 to 216 °C
- CCOCc1nc2c(N)nc3ccc(CCc4ccccc4)cc3c2n1CC(C)(C)O: 175 to 176 °C
- CCCCc1nc2c(N)nc3cc(-c4ccc(C(C)(C)C)cc4)ccc3c2n1CC(C)C: 219 to 220 °C
- CCOCc1nc2c(N)nc3cc(-c4cccc(C(=O)N5CCOCC5)c4)ccc3c2n1CC1CCOCC1 (hydrate or solvate): 125 to 128 °C

Entry CCOCc1nc2c(N)nc3cc(-c4cn[nH]c4)ccc3c2n1CC(C)(C)O — recorded melting point = > 250 °C

Per the record, CCOCc1nc2c(N)nc3cc(-c4ccc(OC(C)C)cc4)ccc3c2n1CCCOC has melting point of 175 to 177 °C

Entry CCCc1nc2c(N)nc3cc(/C=C/c4cccc(S(N)(=O)=O)c4)ccc3c2n1CC(C)C — recorded melting point = > 250 °C

Just so you know, measured melting point for CCOCc1nc2c(N)nc3cc(-c4cccnc4)ccc3c2n1C[C@@H](O)CO came out at 202 to 204 °C

// melting point lookup, compound = CCCCn1c(COCC)nc2c(N)nc3ccc(-c4cccnc4)cc3c21 , result: 220 to 222 °C

// melting point value for CCCc1nc2c(N)nc3cc(CCc4cccc(S(N)(=O)=O)c4)ccc3c2n1CC(C)C : 250 to 251 °C

The measurements presented in this section are drawn from patent US7598382B2.
